- subject_of_test: 5-hydroxytryptamine receptor 1A (Rattus norvegicus, UniProt P19327)
- Sequence (P19327 whole entry): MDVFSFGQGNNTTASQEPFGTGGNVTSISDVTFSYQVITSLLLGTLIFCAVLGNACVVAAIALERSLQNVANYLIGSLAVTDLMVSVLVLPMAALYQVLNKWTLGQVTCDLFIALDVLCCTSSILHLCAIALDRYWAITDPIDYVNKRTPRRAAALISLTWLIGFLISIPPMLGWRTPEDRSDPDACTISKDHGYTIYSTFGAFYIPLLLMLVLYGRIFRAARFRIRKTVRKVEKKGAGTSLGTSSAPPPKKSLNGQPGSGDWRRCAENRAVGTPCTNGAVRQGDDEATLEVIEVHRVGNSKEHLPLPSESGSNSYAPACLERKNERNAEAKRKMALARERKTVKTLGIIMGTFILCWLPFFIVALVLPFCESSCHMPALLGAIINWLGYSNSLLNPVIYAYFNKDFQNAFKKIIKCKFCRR
Field: log10(Ki). System: 5-hydroxytryptamine receptor 1A (Rattus norvegicus, UniProt P19327). Provenance: assorted publications.
Please note: log10 values; quantity Ki; unit nM.

Please review the entries below; each comes with its answer.
compound="CCC1(CCCCN2CCN(c3ccc(Cl)cc3)CC2)C(=O)Nc2cc(F)ccc21 (stereo not given)" reported_value=3.21
compound="O=C1C2CCCN2C(=O)N1CCCN1CCN(c2cccc(Cl)c2)CC1 (stereo not given)" reported_value=1.75
compound=COc1ccccc1N1CCN(Cc2cn(-c3cccc4ccccc34)c3ccccc23)CC1 reported_value=1.85

What value of log10(Ki) has been reported for the following compound? COc1cccc2c1C(CCCN1CCN(c3ccccn3)CC1)=CCC2
0.10

What value of log10(Ki) has been reported for the following compound? CC1(c2ccccc2)NC(=O)N(CCCN2CCN(c3ccccc3)CC2)C1=O (racemic)
2.66

What value of log10(Ki) has been reported for the following compound? Nc1cccc(N2CCN(CCCCN3C(=O)C4CCCCN4C3=O)CC2)c1 (stereo not given)
1.83

What value of log10(Ki) has been reported for the following compound? COc1ccccc1N1CCN(CCCCNC(=O)C(C)c2ccccc2)CC1 (stereo not given)
1.00

What value of log10(Ki) has been reported for the following compound? c1ccc(N2CCN(CCCCCCN3CCN(c4ccccn4)CC3)CC2)cc1
1.48

What value of log10(Ki) has been reported for the following compound? CC(C)Oc1ccccc1N1CCN(Cc2ccc(CN3CCCCC3=O)s2)CC1.Cl
0.49

What value of log10(Ki) has been reported for the following compound? O=C(c1ccc(Cl)c(Cl)c1)N1CCC(CNCc2cccc(F)n2)CC1
0.95

* * *

Field: Ki. System: 5-hydroxytryptamine receptor 1A (Rattus norvegicus). Provenance: assorted publications.
- subject_of_test: 5-hydroxytryptamine receptor 1A (Rattus norvegicus)
- Sequence (P19327 whole entry): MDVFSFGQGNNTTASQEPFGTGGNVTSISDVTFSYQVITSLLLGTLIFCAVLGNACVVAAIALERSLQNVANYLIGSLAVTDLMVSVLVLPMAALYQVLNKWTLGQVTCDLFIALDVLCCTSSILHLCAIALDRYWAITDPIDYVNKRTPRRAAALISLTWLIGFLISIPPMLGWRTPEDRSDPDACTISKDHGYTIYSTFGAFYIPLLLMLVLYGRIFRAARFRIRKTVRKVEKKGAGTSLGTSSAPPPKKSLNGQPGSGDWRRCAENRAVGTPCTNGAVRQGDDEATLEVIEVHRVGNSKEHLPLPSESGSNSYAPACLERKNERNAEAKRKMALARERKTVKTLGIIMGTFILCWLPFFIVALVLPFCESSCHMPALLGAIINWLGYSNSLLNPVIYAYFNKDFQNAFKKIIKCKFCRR
Just the number please, in µM, no unit attached.

Please review the entries below; each comes with its answer.
compound=CCCN(CCC)[C@@H]1CCc2cccc(C(=O)NC(C)C)c2[C@@H]1C parameter=Ki readout_unit=µM reported_value=0.038
compound="COc1cccc(OC)c1OCCNCC1Oc2ccccc2OC1c1ccc(C)cc1 (racemic)" parameter=Ki readout_unit=µM reported_value=0.606
compound=COc1cccc(CCCCNCCOc2cc(F)cc3c2OCCC3=O)c1 parameter=Ki readout_unit=µM reported_value=0.0434

What value of Ki has been reported for the following compound? Cc1cc(-c2nc3ccccc3o2)ccc1OCCCN1CCC(c2noc3cc(F)ccc23)CC1
2.14

What value of Ki has been reported for the following compound? CC(C)Oc1ccccc1N1CCN(CCNC(=O)Cn2nc(-n3ccnc3)ccc2=O)CC1
1.91

What value of Ki has been reported for the following compound? Cl.Nc1cccc(N2CCN(CCCCN3C(=O)C4CCCCN4C3=O)CC2)c1 (stereo unspecified)
0.08

* * *

Field: Ki. System: 5-hydroxytryptamine receptor 1A (Rattus norvegicus, UniProt P19327). Provenance: assorted publications.
I'd appreciate it if you marked entries Satisfied when Ki is lower than 50 nM and Not satisfied when it is not.

molecule=CN1CCc2ccc(OCCCN3CCN(c4ccc5ccccc5n4)CC3)cc2C1=O qualitative_label=Satisfied
molecule=O=C1CC2(CCCC2)CC(=O)N1CCN1CCN(c2cccc3c2OCCO3)CC1 qualitative_label=Satisfied
molecule=O=C(CCCCCN1CCN(c2ccccc2)CC1)c1ccccc1O qualitative_label="Not satisfied"
molecule=COc1ccccc1N1CCN(CCCSc2nc(N)c3c(C)c(C)sc3n2)CC1 qualitative_label=Satisfied
molecule=COc1ccc2[nH]cc(C3CCN(CCCCn4c(=O)c(-c5ccc(Cl)cc5)c5n(c4=O)CCCC5)CC3)c2c1 qualitative_label=Satisfied

Given the entry Cn1c(=O)c2c(nc3nc(NCCN4CCN(c5cccc(Cl)c5)CC4)c(Br)cn32)n(C)c1=O , would its reported Ki be below 50 nM?
Not satisfied

Given the entry Cc1ccc(N(C)C)nc1CNCC1(F)CCN(C(=O)c2ccc(F)c(Cl)c2)CC1 , would its reported Ki be below 50 nM?
Satisfied

Given the entry COc1cccc(OC)c1OCCNC[C@@H]1COc2cccc(OC)c2O1 , would its reported Ki be below 50 nM?
Satisfied

* * *

Field: Ki. System: 5-hydroxytryptamine receptor 1A (Rattus norvegicus, UniProt P19327). Provenance: assorted publications.
Just the number please, in µM, no unit attached.

compound=CN1CCc2ccc(OCCCN3CCN(Cc4ccc5c(c4)OCO5)CC3)cc2C1=O parameter=Ki readout_unit=µM reported_value=0.0183

What measured Ki is associated with COc1ccccc1N1CCC(CNCC2COc3cccc(F)c3O2)CC1 (configuration not stated) on 5-hydroxytryptamine receptor 1A (Rattus norvegicus, UniProt P19327)?
0.016

What measured Ki is associated with COc1ccc2c(c1)C(CCCN1CCN(C3=NCCCC3)CC1)CCC2 (configuration not stated) on 5-hydroxytryptamine receptor 1A (Rattus norvegicus, UniProt P19327)?
0.414

What measured Ki is associated with COc1ccc2onc(N3CCN(CCCCCC(=O)c4ccccc4O)CC3)c2c1 on 5-hydroxytryptamine receptor 1A (Rattus norvegicus, UniProt P19327)?
0.389

What measured Ki is associated with CCCN(CCC)C1CCc2ccc3c(c2C1)N(C=O)CC3 (configuration not stated) on 5-hydroxytryptamine receptor 1A (Rattus norvegicus, UniProt P19327)?
0.55

What measured Ki is associated with COc1cccc2c1CCCC2CCCN1CCN(c2ccc(Cl)cc2)CC1 (configuration not stated) on 5-hydroxytryptamine receptor 1A (Rattus norvegicus, UniProt P19327)?
0.105

What measured Ki is associated with CN1CCc2ccc(OCCCN3CCN(c4cccc(C(F)(F)F)c4)CC3)cc2C1=O on 5-hydroxytryptamine receptor 1A (Rattus norvegicus, UniProt P19327)?
1.04

What measured Ki is associated with COc1ccc(CCCCNCCOc2cc(F)cc3c2OCCC3)cc1 on 5-hydroxytryptamine receptor 1A (Rattus norvegicus, UniProt P19327)?
0.000221

What measured Ki is associated with O=c1ccc(OCCCN2CCN(c3cccc(C(F)(F)F)c3)CC2)nn1-c1ccc(Cl)c(Cl)c1 on 5-hydroxytryptamine receptor 1A (Rattus norvegicus, UniProt P19327)?
0.103

What measured Ki is associated with O=C(c1ccc(F)c(Cl)c1)N1CCC(F)(CNCc2ncccn2)CC1 on 5-hydroxytryptamine receptor 1A (Rattus norvegicus, UniProt P19327)?
0.0955

What measured Ki is associated with O=C1C2CCCN2C(=O)CN1CN1CCN(c2cccc3ccccc23)CC1 (configuration not stated) on 5-hydroxytryptamine receptor 1A (Rattus norvegicus, UniProt P19327)?
0.0041

What measured Ki is associated with COc1ccccc1N1CCN(CCCCCC(=O)c2cccc(O)c2)CC1 on 5-hydroxytryptamine receptor 1A (Rattus norvegicus, UniProt P19327)?
0.024

What measured Ki is associated with C=CCN(CCC)C1CCc2cccc(OS(=O)(=O)C(F)(F)F)c2C1 (configuration not stated) on 5-hydroxytryptamine receptor 1A (Rattus norvegicus, UniProt P19327)?
0.00955

What measured Ki is associated with O=C1C2CCCN2C(=O)N1C/C=C\CNCC1CCc2ccccc2O1 (configuration not stated) on 5-hydroxytryptamine receptor 1A (Rattus norvegicus, UniProt P19327)?
0.114

What measured Ki is associated with O=C(Nc1ccc(Cl)cc1)N1CCC(CN2CCC(c3noc4cc(F)ccc34)CC2)CC1 on 5-hydroxytryptamine receptor 1A (Rattus norvegicus, UniProt P19327)?
0.299

What measured Ki is associated with CC1(C)CC(=O)N(CCN2CCN(c3cccc4c3OCCO4)CC2)C(=O)C1 on 5-hydroxytryptamine receptor 1A (Rattus norvegicus, UniProt P19327)?
0.00468

What measured Ki is associated with COc1ccccc1N1CCN(CCCCn2nc(-n3ccc4ccccc43)ccc2=O)CC1 on 5-hydroxytryptamine receptor 1A (Rattus norvegicus, UniProt P19327)?
0.253

What measured Ki is associated with O=C1C2CSCN2C(=O)N1CCCCNCC1CCc2ccccc2O1 (configuration not stated) on 5-hydroxytryptamine receptor 1A (Rattus norvegicus, UniProt P19327)?
0.013

What measured Ki is associated with O=c1[nH]c2cccc(N3CCN(Cc4cccc(-c5ccccc5)c4)CC3)c2o1 on 5-hydroxytryptamine receptor 1A (Rattus norvegicus, UniProt P19327)?
0.0646

What measured Ki is associated with CCCc1cc(=O)oc2cc(OCCCCN3CCC(c4noc5cc(F)ccc45)CC3)ccc12 on 5-hydroxytryptamine receptor 1A (Rattus norvegicus, UniProt P19327)?
0.41

What measured Ki is associated with O=C(NCCN1CCN(c2cccc3ccoc23)CC1)c1ccc(F)cc1 on 5-hydroxytryptamine receptor 1A (Rattus norvegicus, UniProt P19327)?
0.00015

What measured Ki is associated with COc1ccccc1N1CCN(CCCCN2Cc3nc4ccccc4cc3C2=O)CC1 on 5-hydroxytryptamine receptor 1A (Rattus norvegicus, UniProt P19327)?
0.015
